IC50 values for the binders below.
biological target: T1, mouse melanocortin 4 receptor (mouse, UniProt P56450 1-332); assay: 125I-NDP-MSH competition, HEK293 cells
T1 construct: whole, on cells; also called mMC4R; MC4R
T1 sequence (P56450 whole entry): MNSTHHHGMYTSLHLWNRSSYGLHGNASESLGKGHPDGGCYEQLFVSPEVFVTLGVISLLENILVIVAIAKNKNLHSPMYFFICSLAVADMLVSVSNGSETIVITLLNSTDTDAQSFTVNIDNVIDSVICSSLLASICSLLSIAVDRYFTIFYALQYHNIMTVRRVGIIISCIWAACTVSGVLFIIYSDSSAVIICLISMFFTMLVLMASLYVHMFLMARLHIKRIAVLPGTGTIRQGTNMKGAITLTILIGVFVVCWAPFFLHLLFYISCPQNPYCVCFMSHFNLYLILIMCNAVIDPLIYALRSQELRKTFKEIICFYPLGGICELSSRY
Square brackets hold non-standard residues; d marks the D form. Dap = NC[C@H](N)C(=O)O
parameter: IC50 (nM)

1) cyclo(PCFFNAF[dP]) (Arg111Cys SNP in the Asn scaffold; also called c[Pro-Cys-Phe-Phe-Asn-Ala-Phe-DPro]) [ZMK 3-18]	1900
2) cyclo(PHFFNAF[dP]) (Arg111His SNP in the Asn scaffold; also called c[Pro-His-Phe-Phe-Asn-Ala-Phe-DPro]) [ZMK 2-96]	6700
3) cyclo(PRFFNVF[dP]) (Ala115Val SNP in the Asn scaffold; also called c[Pro-Arg-Phe-Phe-Asn-Val-Phe-DPro]) [ZMK 2-82]	38
4) cyclo(PRYFNAF[dP]) (Phe112Tyr SNP in the Asn scaffold; also called c[Pro-Arg-Tyr-Phe-Asn-Ala-Phe-DPro]) [ZMK 2-110]	2000
5) cyclo(PHFF[Dap]AF[dP]) (Arg111His SNP in the Dap scaffold; also called c[Pro-His-Phe-Phe-Dap-Ala-Phe-DPro]) [ZMK 2-99]	1000
6) cyclo(PRYF[Dap]AF[dP]) (Phe112Tyr SNP in the Dap scaffold; also called c[Pro-Arg-Tyr-Phe-Dap-Ala-Phe-DPro]) [ZMK 2-112]	134
7) cyclo(PCFF[Dap]AF[dP]) (Arg111Cys SNP in the Dap scaffold; also called c[Pro-Cys-Phe-Phe-Dap-Ala-Phe-DPro]) [ZMK 3-20]	10000

The reported numbers originate from patent US20210179666A1.
